System tested: monkey EGFR (monkey)
Measurement description: SPR Biacore
Experimental endpoint: Kd (nM)
Dear colleague, please return just the value in nM, with no unit written.

# example entries with known answers
{"Binder": "E4-GS10-I1 pegylated, His-tagged (designed binder, 40 kDa branched PEG on the Cys of the C-terminal Cys tail, also called E4-GS10-I1 (with Peg)) MGVSDVPRDLEVVAATPTSLLISWHERDGSRQYYRITYGETGGNSPVQEFTVPGGVRTATISGLKPGVDYTITVYAVTDYFNPTTHEYIYQTTPISINYRTEIDKGSGSGSGSGSGSGSGSGSGSVSDVPRDLEVVAATPTSLLISWSARLKVARYYRITYGETGGNSPVQEFTVPKNVYTATISGLKPGVDYTITVYAVTRFRDYQPISINYRTEIDKPCQHHHHHH", "Kd / nM": 5.7}
{"Binder": "I1-GS10-E85 pegylated, His-tagged (designed binder, 40 kDa branched PEG on the Cys of the C-terminal Cys tail) MGVSDVPRDLEVVAATPTSLLISWSARLKVARYYRITYGETGGNSPVQEFTVPKNVYTATISGLKPGVDYTITVYAVTRFRDYQPISINYRTEIDKGSGSGSGSGSGSGSGSGSGSVSDVPRDLEVVAATPTSLLISWTQGSTHYQYYRITYGETGGNSPVQEFTVPGMVYTATISGLKPGVDYTITVYAVTDYFDRSTHEYKYRTTPISINYRTEIDKPCQHHHHHH", "Kd / nM": 7}

So what does the record say about Kd for I1-GS10-E105 pegylated, His-tagged (designed binder, 40 kDa branched PEG on the Cys of the C-terminal Cys tail) MGVSDVPRDLEVVAATPTSLLISWSARLKVARYYRITYGETGGNSPVQEFTVPKNVYTATISGLKPGVDYTITVYAVTRFRDYQPISINYRTEIDKGSGSGSGSGSGSGSGSGSGSVSDVPRDLEVVAATPTSLLISWDAPTSRYQYYRITYGETGGNSPVQEFTVPGGLSTATISGLKPGVDYTITVYAVTDYKPHADGPHTYHESPISINYRTEIDKPCQHHHHHH ?
4.4

Another binder: I1-GS10-E4 pegylated, His-tagged (designed binder, 40 kDa branched PEG on the Cys of the C-terminal Cys tail) MGVSDVPRDLEVVAATPTSLLISWSARLKVARYYRITYGETGGNSPVQEFTVPKNVYTATISGLKPGVDYTITVYAVTRFRDYQPISINYRTEIDKGSGSGSGSGSGSGSGSGSGSVSDVPRDLEVVAATPTSLLISWHERDGSRQYYRITYGETGGNSPVQEFTVPGGVRTATISGLKPGVDYTITVYAVTDYFNPTTHEYIYQTTPISINYRTEIDKPCQHHHHHH
3.9
